Test: qHTS of pediatric cancer cell lines to identify multiple opportunities for drug repurposing: Primary screen for DAOY cells (AID 1347090); further: nearly all actives have a fitted effect of over 55% in size
Conditions: DAOY medulloblastoma viability, CellTiter-Glo luminescence, 48 h; series mostly up to 46 µM
Inconclusive results are not listed. Active and inactive are the calls of the source. The call rests on the fitted dose curve; in most records, active means well fitted cell-killing curve with a large enough effect; inconclusive means small, poorly fitted or top-dose-only effect; inactive means flat fitted curve, though single readings scatter.
Choose one outcome from this list and give only that: yes (1) = active, no (0) = inactive

Here's what some known entries look like.
NC(=O)c1ncn([C@@H]2O[C@H](CO)[C@@H](O)[C@@H]2O)n1	no (0)
COc1cc2nccc(Oc3ccc(NC(=O)Nc4cc(C)on4)c(Cl)c3)c2cc1OC	yes (1)
NCC1CCC(C(=O)O)CC1 (centres undefined)	no (0)

Exam item: Assay outcome for C[C@@H](O)[C@H]1C(=O)N2C(C(=O)OCOC(=O)C(C)(C)C)=C(SC3CN(C4=NCCS4)C3)[C@H](C)[C@H]12 : what was it?
Marked response: no (0)

Exam item: Record request — test call for Fc1ccc(CNc2ncnc3ccc(F)cc23)cc1
Marked response: yes (1)

Exam item: What is the recorded call for this compound in the test? CCC[C@@H](NC(=O)[C@@H]1[C@H]2CCC[C@@H]2CN1C(=O)[C@@H](NC(=O)[C@@H](NC(=O)c1cnccn1)C1CCCCC1)C(C)(C)C)C(=O)C(=O)NC1CC1
Marked response: no (0)

Exam item: Check the results log: what was the call for CC(C)(CO)[C@@H](O)C(=O)NCCC(=O)O ?
Marked response: no (0)

Exam item: Record request — test call for CC[C@H](C)n1cc(C)c2c(C(=O)NCc3c(C)cc(C)[nH]c3=O)cc(-c3ccc(N4CCNCC4)nc3)cc21
Marked response: yes (1)

Exam item: Tell me the assay call for N#CC(c1ccnc(NCCc2cccnc2)n1)c1nc2ccccc2s1 (centres undefined) please.
Marked response: yes (1)

###

Assay: qHTS of pediatric cancer cell lines to identify multiple opportunities for drug repurposing: Primary screen for A673 cells (AID 1347092); further: potency means the concentration at half of the fitted maximal effect; nearly all actives have a fitted effect of over 45% in size
Conditions: A673 Ewing sarcoma viability, CellTiter-Glo ATP luminescence, 48 h; series mostly up to 46 µM
Results filed as inconclusive are left out. The source made the active and inactive calls. The call rests on the fitted dose curve; in most records, active means well fitted cell-killing curve with a large enough effect; inconclusive means small, poorly fitted or top-dose-only effect; inactive means no such curve, though single readings can be large or run the other way.
Would you mind answering with one of these outcomes? active, inactive

Example entries and their recorded answers appear below.
Cc1ccc(NC(=O)c2ccc(CN3CCN(C)CC3)cc2)cc1Nc1nc(-c2cccnc2)cs1	active
OC1CCC(Nc2ncc3nc(Nc4c(F)cc(F)cc4F)n([C@@H]4CCOC4)c3n2)CC1 (stereo not given in full)	active

Exam item: Per the records of this test, what outcome belongs to COc1ccc(Cn2ccc3ccc(C(=O)NO)cc32)cc1 ?
Marked response: active

Exam item: Which result was noted for this compound in the test: NC(=O)c1noc([C@H](CCCC2CCCCC2)CC(=O)NO)n1
Marked response: active

###

Test: qHTS of pediatric cancer cell lines to identify multiple opportunities for drug repurposing: Confirmatory screen for NB-EBc1 cells (AID 1347115);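 further: cells exposed to compound for 48 h before the viability read; nearly all actives have a fitted effect of over 45% in size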
Details: NB-EBc1 neuroblastoma cells, viability (cytotoxicity); series mostly up to 45.9 µM
Records with an inconclusive call do not appear. Active and inactive are the calls of the source. Calls follow the shape of the dose curve; as a rule, active = well fitted cell-killing curve with a large enough effect; inconclusive = small, poorly fitted or top-dose-only effect, or effect the other way; inactive = no such curve, though single readings can be large or run the other way.
Respond only with the outcome that fits, drawn from 1 = active, 0 = inactive

For orientation, consider the following solved cases.
CC1(C)OC2CC3C4CC(F)C5=CC(=O)C=CC5(C)C4C(O)CC3(C)[C@]2(C(=O)CO)O1 (stereo partly specified)	0
CN1CCN(c2ncc(-c3cc(Cl)cc(Cl)c3Cl)c(N)n2)CC1	0
C=C1[C@H](n2cnc3c(=O)[nH]c(N)nc32)C[C@H](O)[C@H]1CO	0
CSc1cccc(Nc2ncc3cc(-c4c(Cl)cccc4Cl)c(=O)n(C)c3n2)c1	1
CC1(C)CC(=O)c2c(C(F)(F)F)nn(-c3ccc(C(N)=O)c(NC4CCC(O)CC4)c3)c2C1 (stereo unspecified)	1

Exam item: Could you kindly confirm the outcome this assay logged for CN(C)CCN(C)C(=O)c1ccc(NC(=O)Nc2ccc(-c3nc(N4CCOCC4)c4ccn(CC(F)(F)F)c4n3)cc2)cc1 ?
Marked response: 0

Exam item: Which outcome did this test record for the compound COc1cc(CNC(=O)CCCCC=CC(C)C)ccc1O ?
Marked response: 0

Exam item: # lookup: test call for C[C@@]1(C(=O)Nc2ccc(F)nc2)CCCN1c1nc(Nc2cc(C3CC3)[nH]n2)c2cccn2n1
Marked response: 1

Exam item: Could you please tell me the result logged for Cc1cnc(-c2cc(N3CCN(C(=O)CCS(C)(=O)=O)CC3)ncc2Cl)c(C)c1 in this assay?
Marked response: 0

###

Test: Quantitative High-Throughput drug screen in 47 multiple myeloma cell lines against the NCATS MIPE library collection: XG1_PLB cell viability assay (AID 1919866); further: nearly all actives have a fitted effect of over 35% in size; further: potency means the concentration at half of the fitted maximal effect
Settings: CellTiter-Glo ATP, 48 h; series mostly up to 45.8 µM
Records with an inconclusive call do not appear. Activity calls are given as the source filed them. Calls follow the shape of the dose curve; as a rule, active = well fitted cell-killing curve with a large enough effect; inconclusive = small, poorly fitted or top-dose-only effect, or effect the other way; inactive = no such curve, though single readings can be large or run the other way.
Metric: Potency

Example cases with answers are listed next.
CC(O)=C(C#N)C(=O)Nc1ccc(C(F)(F)F)cc1	16.6 µM (active)
Fc1ccc(CNc2ncnc3ccc(F)cc23)cc1	4.69 µM (active)
COc1ccc(-c2cc3nccn3c(Nc3ncccc3C(N)=O)n2)cc1OC	1.05 µM (active)
Clc1ccc(C2(c3ccc(-c4cn[nH]c4)cc3)CCNCC2)cc1	18.7 µM (active)
COc1c(C)cnc(Cn2cnc3c(Cl)nc(N)nc32)c1C	0.118 µM (active)

# batch size: 4; output Potency per entry
1. CC(=O)OCC(=O)[C@@]1(O)CC[C@H]2[C@@H]3CCC4=CC(=O)C=C[C@]4(C)[C@@H]3[C@@H](O)C[C@@]21C
2. c1ccc(CNc2nc(N3CCOc4ccccc43)nc3c2CCCC3)cc1
3. O=C(c1ccc(F)c(F)c1Nc1ccc(I)cc1F)N1CC(O)([C@H]2CCCCN2)C1
4. Nc1ncnc2c1c(-c1cccc(OCc3ccccc3)c1)cn2C1CC(CN2CCC2)C1 (stereo not drawn)

Marked response:
inactive
inactive
16.6 µM (active)
23.5 µM (active)

###

Assay: qHTS of pediatric cancer cell lines to identify multiple opportunities for drug repurposing: Primary screen for TC32 cells (AID 1347089); further: nearly all actives have a fitted effect of over 60% in size
Conditions: TC32 Ewing sarcoma viability, CellTiter-Glo luminescence, 48 h; series mostly up to 45.8 µM
Inconclusive results are not listed. Activity calls are given as the source filed them. Calls follow the shape of the dose curve; as a rule, active = well fitted cell-killing curve with a large enough effect; inconclusive = small, poorly fitted or top-dose-only effect; inactive = flat fitted curve, though single readings scatter.
Your response should consist of one outcome taken from active, inactive

CC(C)N(CCCNC(=O)Nc1ccc(C(C)(C)C)cc1)C[C@H]1O[C@@H](n2cc(Br)c3c(N)ncnc32)[C@H](O)[C@H]1O	inactive

Exam item: Fill in: this test's call for O=C(Nc1ccc(OC(F)(F)F)cc1)c1sccc1NCc1ccnc2ccccc12 is ___
Marked response: inactive

Exam item: How did this test come out for CN(C)c1nc(Cc2ccc(NC(=O)c3ccc(C(F)(F)F)cc3)cc2)nc(N(C)C)c1CC(=O)O ?
Marked response: inactive

###

Assay: Quantitative High-Throughput drug screen in 47 multiple myeloma cell lines against the NCATS MIPE library collection: NCIH929_DSMZ cell viability assay (AID 1918978); further: nearly all actives have a fitted effect of over 35% in size; further: potency means the concentration at half of the fitted maximal effect
Conditions: NCI-H929 myeloma viability, CellTiter-Glo ATP, 48 h; series mostly up to 45.8 µM
Inconclusive results are not listed. Active and inactive are the calls of the source. Calls follow the shape of the dose curve; as a rule, active = well fitted cell-killing curve with a large enough effect; inconclusive = small, poorly fitted or top-dose-only effect; inactive = no such curve, though single readings can be large or run the other way.
Metric: Potency

Please review the entries below; each comes with its answer.
CN(C)S(=O)(=O)c1ccc2c(c1)C(=Cc1cc3c([nH]1)CCCC3)C(=O)N2	18.7 µM (active)
CCCCN(CCCC)CC(O)c1cc(Cl)cc2c1-c1ccc(Cl)cc1C2=Cc1ccc(Cl)cc1 (stereo not given)	26.4 µM (active)
CCC(=C(CC)c1ccc(O)cc1)c1ccc(O)cc1	16.6 µM (active)
C[C@H](c1ccc(F)cc1CCCC(=O)O)N(c1cc(F)ccc1F)S(=O)(=O)c1ccc(Cl)cc1	6.62 µM (active)
O=c1[nH]nc(OCCCc2ccc(Cl)cc2)c(NCc2cccnc2)c1Br	7.43 µM (active)

Provide Potency for all items below, preserving their order.
1. OCCn1cc(-c2ccc3c(c2)CCC3=NO)c(-c2ccncc2)n1
2. COc1cc2c(cc1OC)[C@@H]1Cc3ccc(OC)c(OC)c3CN1CC2

Marked response:
20.9 µM (active)
inactive

###

Test: Quantitative High-Throughput drug screen in 47 multiple myeloma cell lines against the NCATS MIPE library collection: KMS12BM_JCRB cell viability assay (AID 1918971); further: nearly all actives have a fitted effect of over 35% in size
Settings: KMS12BM myeloma viability, CellTiter-Glo ATP, 48 h; series mostly up to 45.8 µM
Records with an inconclusive call do not appear. Calls of active or inactive are those of the source. Calls come from the whole dose curve; as a rule, active = well fitted cell-killing curve with a large enough effect; inconclusive = small, poorly fitted or top-dose-only effect, or effect the other way; inactive = no such curve, though single readings can be large or run the other way.
One label from this list, please: active, inactive

COC(=O)[C@H](c1ccccc1Cl)N1CCc2sccc2C1	inactive
CN1C(=O)C[C@H](C(=O)N[C@@H](Cc2cnc[nH]2)C(=O)N2CCC[C@@H]2C(N)=O)NC1=O	active
COc1c(C)c2c(c(O)c1CC=C(C)CCC(=O)OCCN1CCOCC1)C(=O)OC2	active
CCOC(=O)c1c(CSc2ccccc2)n(C)c2cc(Br)c(O)c(CN(C)C)c12	active

Would you kindly look at the next entry?
Exam item: I'd appreciate the recorded outcome for C[C@@H](O[C@H]1OCCN(Cc2n[nH]c(=O)[nH]2)[C@@H]1c1ccc(F)cc1)c1cc(C(F)(F)F)cc(C(F)(F)F)c1 from this test.
Marked response: active
